This collection of values is drawn from patent US5332820A.

- study system: AII receptor (rat adrenal cortical microsomes)
- procedure details: Angiotensin II receptor binding (ligand-receptor binding assay; displacement of 3H-AII or 125I-AII)
- applied conditions: 2 nM 3H-AII or 0.05 nM 125I-AII, 1 hour, room temperature
Exercise: for every item that follows, state its recorded log10(IC50).
For clarity, the numbers are log10 values of IC50 expressed in nM.

| compound | log10(IC50) |
| --- | --- |
| CCCCc1nc(Cl)c(C=O)n1Cc1ccc2c(c1)C1c3ccccc3C2C(C(=O)O)C1C(=O)O (mixture of isomers) [Example 1] | 3.04 |

Look up log10(IC50) for the entries below, preserving their order.
1. CCCCc1nc(Sc2ccccc2)c(C=O)n1Cc1ccc2c(c1)C1c3ccccc3C2C(c2nnn[nH]2)C1c1nnn[nH]1 (mixture of isomers)
2. CCCCc1nc(Cl)c(C=O)n1Cc1ccc2c(c1)C1c3ccccc3C2C(C(=O)O)C1C(=O)O (mixture of isomers) [Example 2B]
3. CCCCc1nc(Cl)c(C=O)n1Cc1ccc2c(c1)C1c3ccccc3C2C(C(=O)O)C1C(=O)O (mixture of isomers) [Example 2A]
4. CCCCc1nc(Cl)c(C=O)n1Cc1ccc2c(c1)C1c3ccccc3C2C(c2nnn[nH]2)C1c1nnn[nH]1 (mixture of isomers)

[A]
1. 2.66
2. 2.51
3. 2.34
4. 1.96
